The origin of these recorded values is paper PMC8226722.

- Tested on: MRC-5 normal human embryonal lung fibroblast cells
- method summary: MTT cytotoxicity assay, MRC-5
- Assay type: cell-based
- run parameters: 72 h
reported property: log10 IC50 (log10 of the value in µM)
Parameter value (number): base-10 log of IC50 in µM.

Some entries whose results are on file:
Cc1ccc(C(C)C)cc1.[Cl-].[O-]n1ccccc1=S.[Ru+2] [complex 1]
0.34
C1N2CN3CN1CP(C2)C3.Cc1ccc(C(C)C)cc1.F[P-](F)(F)(F)(F)F.O=C(C=C([O-])C(F)(F)F)c1ccc(Cl)cc1.[Ru+2] [complex 8]
1.25
Cc1ccc(C(C)C)cc1.O=C(C=C([O-])C(F)(F)F)c1ccc(Cl)cc1.[Cl-].[Ru+2] [complex 7]
1.42
Cc1ccc(C(C)C)cc1.[Cl-].[O-]n1ccc2ccccc2c1=S.[Ru+2] [complex 3]
0.88

-- ask Please report the recorded log10 IC50 for Cc1ccc(C(C)C)cc1.[Cl-].[O-]c1c(I)cc(Cl)c2cccnc12.[Ru+2] [complex 5] .
-- reply 0.47

-- ask Please report the recorded log10 IC50 for N.N.[Cl][Pt][Cl] [cisplatin, reference compound] .
-- reply -0.06

====

- tested target: ABCB1 (P-glycoprotein) efflux pump (Homo sapiens)
- method summary: Rhodamine 123 uptake/retention fluorescence assay (flow cytometry) in Colo 320 cells
- run parameters: Colo 320, rhodamine 123, 2 μM
So basically: FL-1 mean fluorescence of the cells at 5 or higher? That is true. Lower than 5? That is false.

Some solved cases for reference:
C1N2CN3CN1CP(C2)C3.Cc1ccc(C(C)C)cc1.F[P-](F)(F)(F)(F)F.[O-]n1ccccc1=S.[Ru+2]
true
C1N2CN3CN1CP(C2)C3.Cc1ccc(C(C)C)cc1.F[P-](F)(F)(F)(F)F.[O-]n1ccc2ccccc2c1=S.[Ru+2]
false
C1N2CN3CN1CP(C2)C3.Cc1ccc(C(C)C)cc1.F[P-](F)(F)(F)(F)F.O=C(C=C([O-])C(F)(F)F)c1ccc(Cl)cc1.[Ru+2]
false
Cc1ccc(C(C)C)cc1.[Cl-].[O-]c1c(I)cc(Cl)c2cccnc12.[Ru+2]
true

-- ask For this molecule, is measured FL-1 mean fluorescence of the cells 5 or higher? Cc1ccc(C(C)C)cc1.O=C(C=C([O-])C(F)(F)F)c1ccc(Cl)cc1.[Cl-].[Ru+2]
-- reply true

====

We begin with a simple list: items and their reported FSC forward scatter count.
- tested target: ABCB1 (P-glycoprotein) efflux pump (Homo sapiens, UniProt P08183)
- Sequence (P08183 whole entry): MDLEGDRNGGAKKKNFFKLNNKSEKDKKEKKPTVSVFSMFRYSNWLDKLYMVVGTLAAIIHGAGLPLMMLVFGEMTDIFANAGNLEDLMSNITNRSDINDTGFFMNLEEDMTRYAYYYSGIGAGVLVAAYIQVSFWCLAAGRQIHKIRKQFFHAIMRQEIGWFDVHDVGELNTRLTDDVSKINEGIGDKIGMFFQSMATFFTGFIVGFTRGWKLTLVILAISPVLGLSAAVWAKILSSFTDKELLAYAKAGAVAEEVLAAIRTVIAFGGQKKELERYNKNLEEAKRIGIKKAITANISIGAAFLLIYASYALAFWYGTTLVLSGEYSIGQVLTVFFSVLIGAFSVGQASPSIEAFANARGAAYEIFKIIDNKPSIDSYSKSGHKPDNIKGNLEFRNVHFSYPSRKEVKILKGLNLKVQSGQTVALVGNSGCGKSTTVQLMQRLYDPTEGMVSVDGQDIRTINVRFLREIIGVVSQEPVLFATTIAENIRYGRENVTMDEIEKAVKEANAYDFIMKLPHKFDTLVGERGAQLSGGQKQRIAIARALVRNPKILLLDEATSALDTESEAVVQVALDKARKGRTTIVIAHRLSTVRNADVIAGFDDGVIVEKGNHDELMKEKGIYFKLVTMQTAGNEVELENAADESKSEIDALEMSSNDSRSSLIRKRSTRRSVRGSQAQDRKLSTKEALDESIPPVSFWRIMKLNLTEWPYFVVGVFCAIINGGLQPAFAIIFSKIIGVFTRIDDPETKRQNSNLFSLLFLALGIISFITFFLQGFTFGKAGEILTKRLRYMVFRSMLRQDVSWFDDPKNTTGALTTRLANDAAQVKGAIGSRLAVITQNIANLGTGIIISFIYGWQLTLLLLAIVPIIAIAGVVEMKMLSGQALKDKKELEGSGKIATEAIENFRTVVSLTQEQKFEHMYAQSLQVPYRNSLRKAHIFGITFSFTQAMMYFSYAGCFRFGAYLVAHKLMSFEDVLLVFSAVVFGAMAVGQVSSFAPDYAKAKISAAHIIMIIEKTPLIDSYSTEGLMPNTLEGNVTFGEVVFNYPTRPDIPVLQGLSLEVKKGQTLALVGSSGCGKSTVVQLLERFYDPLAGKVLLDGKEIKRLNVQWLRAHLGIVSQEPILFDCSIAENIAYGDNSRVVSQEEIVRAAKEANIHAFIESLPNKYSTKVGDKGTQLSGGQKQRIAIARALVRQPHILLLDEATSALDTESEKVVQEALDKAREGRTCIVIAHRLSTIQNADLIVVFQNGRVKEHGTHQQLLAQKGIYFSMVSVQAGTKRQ
- method summary: Rhodamine 123 uptake/retention fluorescence assay (flow cytometry) in Colo 320 cells
- run parameters: Colo 320, 20 μM
Give the value as a plain number.

Cc1ccc(C(C)C)cc1.[Cl-].[O-]c1c(I)cc(Cl)c2cccnc12.[Ru+2]
1950
C1N2CN3CN1CP(C2)C3.Cc1ccc(C(C)C)cc1.F[P-](F)(F)(F)(F)F.[O-]n1ccccc1=S.[Ru+2]
2071
Cc1ccc(C(C)C)cc1.O=C(C=C([O-])C(F)(F)F)c1ccc(Cl)cc1.[Cl-].[Ru+2]
1909
C1N2CN3CN1CP(C2)C3.Cc1ccc(C(C)C)cc1.F[P-](F)(F)(F)(F)F.O=C(C=C([O-])C(F)(F)F)c1ccc(Cl)cc1.[Ru+2]
1950

# ---- query compound ----
-- ask Please report the recorded FSC forward scatter count for C1N2CN3CN1CP(C2)C3.Cc1ccc(C(C)C)cc1.F[P-](F)(F)(F)(F)F.[O-]n1ccc2ccccc2c1=S.[Ru+2] .
-- reply 1977
